The values you see were collected from the supplement of paper PMC10065799.

Catalogue of phosphorylation enrichment values
molecular target: EPHB2 (UniProt P29323); assay: phosphorylation enrichment, bacterial display (enrichment ratio); higher = better substrate or ligand; peptides without Tyr show the background;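 note: 11-residue human phosphosite peptides and single-mutation variants displayed on the E. coli surface, counted by deep sequencing, each peptide's frequency after selection divided by its frequency in the unselected input library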;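 note: frequency after pTyr selection over input frequency; kinase dosed for 20-30% of maximal phosphorylation in three min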
Sequence (P29323 whole entry, looked up): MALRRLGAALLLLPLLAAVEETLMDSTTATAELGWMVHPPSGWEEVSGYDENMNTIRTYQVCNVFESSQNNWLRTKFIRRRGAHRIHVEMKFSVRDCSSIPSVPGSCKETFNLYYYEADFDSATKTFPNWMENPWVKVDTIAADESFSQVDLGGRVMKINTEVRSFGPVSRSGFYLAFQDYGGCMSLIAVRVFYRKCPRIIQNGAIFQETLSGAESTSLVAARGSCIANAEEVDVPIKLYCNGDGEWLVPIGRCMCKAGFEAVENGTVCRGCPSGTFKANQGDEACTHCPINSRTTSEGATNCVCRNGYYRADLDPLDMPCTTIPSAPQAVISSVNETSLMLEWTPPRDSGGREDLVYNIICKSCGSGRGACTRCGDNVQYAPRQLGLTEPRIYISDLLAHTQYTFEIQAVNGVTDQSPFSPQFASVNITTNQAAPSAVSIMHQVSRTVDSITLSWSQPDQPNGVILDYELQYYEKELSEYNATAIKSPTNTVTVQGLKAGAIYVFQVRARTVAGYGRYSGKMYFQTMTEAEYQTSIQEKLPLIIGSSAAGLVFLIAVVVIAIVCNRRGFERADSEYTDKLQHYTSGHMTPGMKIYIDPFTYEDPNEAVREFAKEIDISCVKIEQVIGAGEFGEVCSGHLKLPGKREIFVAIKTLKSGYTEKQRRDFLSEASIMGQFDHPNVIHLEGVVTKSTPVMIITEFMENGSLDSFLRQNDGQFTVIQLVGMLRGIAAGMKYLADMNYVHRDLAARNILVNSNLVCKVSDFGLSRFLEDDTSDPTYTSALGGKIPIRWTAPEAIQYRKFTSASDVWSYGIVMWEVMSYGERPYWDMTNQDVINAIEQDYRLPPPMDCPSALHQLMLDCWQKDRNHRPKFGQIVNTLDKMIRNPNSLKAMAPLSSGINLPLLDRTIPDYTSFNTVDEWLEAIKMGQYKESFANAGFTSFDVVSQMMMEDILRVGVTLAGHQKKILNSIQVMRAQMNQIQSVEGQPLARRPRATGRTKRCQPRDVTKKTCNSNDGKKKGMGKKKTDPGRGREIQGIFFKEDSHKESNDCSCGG

[
  {
    "biosequence": "LLNPSYNLPLD [TOM1L1_Y109_R108S]",
    "result": 0.711
  }
]

Summary line: HQNGMYGLHQD [SGSH_Y89] , EPHB2 (UniProt P29323), reported phosphorylation enrichment = 0.591

Reported phosphorylation enrichment (EPHB2 (UniProt P29323)) for entry TVDASYFGGRG [ANTXR2_Y380_YF] is 0.337

phosphorylation enrichment for EPHB2 (UniProt P29323) with input RTTIHYNYMCN [TP53_Y234_C229R] equals 1.13

The sequence FTGDIYSSSNL [LZTR1_Y141_N143S_YF] , tested on EPHB2 (UniProt P29323), showed phosphorylation enrichment of 1.03

// phosphorylation enrichment (EPHB2 (UniProt P29323)) for EKEQNYDLTEV [ECD_Y448] = 0.675

Short answer on EPHB2 (UniProt P29323) for RRSQSYIPTSG [PLEKHA2_Y185] , phosphorylation enrichment: 0.729

Assay EPHB2 (UniProt P29323), sample RSHRSYSCQVM [IGLL1_Y192_R189H] , phosphorylation enrichment read: 0.512
